Each entry below carries its reported pIC50.
- tested_on: Mitogen-activated protein kinase 8 (Homo sapiens, UniProt P45983)
- Sequence (P45983 whole entry): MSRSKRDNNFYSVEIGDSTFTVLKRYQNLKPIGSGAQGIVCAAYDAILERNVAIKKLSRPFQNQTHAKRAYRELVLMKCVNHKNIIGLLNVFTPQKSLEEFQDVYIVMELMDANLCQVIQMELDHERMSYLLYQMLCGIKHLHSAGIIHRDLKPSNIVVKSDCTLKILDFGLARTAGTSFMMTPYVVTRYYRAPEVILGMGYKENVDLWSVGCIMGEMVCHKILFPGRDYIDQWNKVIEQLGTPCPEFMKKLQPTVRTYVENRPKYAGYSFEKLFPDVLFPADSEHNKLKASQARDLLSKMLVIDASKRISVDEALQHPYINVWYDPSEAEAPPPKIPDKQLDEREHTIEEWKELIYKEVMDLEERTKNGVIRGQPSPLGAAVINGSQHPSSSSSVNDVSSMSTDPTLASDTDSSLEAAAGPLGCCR
- method_description: Inhibition of JNK1 (unknown origin)-mediated ATF2 Thr71 phosphorylation by HTRF assay
Please treat pIC50 as minus the base-10 logarithm of the molar concentration.

Worked examples, 3 compounds total:
- structure: "Cc1cccc(Nc2ccc3c(cnn3-c3cccc(C(=O)NCCN4CCN(C5CCC5)CC4)c3)c2)c1Cl"
  tested_on: "Mitogen-activated protein kinase 8 (Homo sapiens, UniProt P45983)"
  pIC50: 6.01
- structure: "O=C(NCCN1CCOCC1)c1cccc(-n2ncc3cc(Nc4ccccc4Cl)ccc32)n1"
  tested_on: "Mitogen-activated protein kinase 8 (Homo sapiens, UniProt P45983)"
  pIC50: 5.15
- structure: "CCOc1ccc(NC(=O)c2cccc(-n3ncc4cc(Nc5ccccc5F)ccc43)c2)cc1OC"
  tested_on: "Mitogen-activated protein kinase 8 (Homo sapiens, UniProt P45983)"
  pIC50: 6.37

Problem: pIC50 of `O=C(NCCN1CCOCC1)c1cccc(-n2ncc3cc(Nc4ccccn4)ccc32)c1` on Mitogen-activated protein kinase 8 (Homo sapiens, UniProt P45983)?
Solution: 5.15

Problem: Param item: `COc1cc(NC(=O)c2cccc(-n3ncc4cc(Nc5ccccc5Cl)ccc43)c2)cc(OC)c1OC`
Solution: 7.03

Problem: Param item: `O=C(NCCCN1CCOCC1)c1cccc(-n2ncc3cc(Nc4ccccc4Cl)ccc32)c1`
Solution: 6.39

Problem: Param item: `O=C(NCCN1CCOCC1)c1cccc(-n2ncc3cc(Nc4ccccc4Cl)ccc32)c1`
Solution: 6.12

Problem: Param item: `Cc1cc(NC(=O)c2cccc(-n3ncc4cc(Nc5ccccc5F)ccc43)c2)ccc1N1CCOCC1`
Solution: 6.77
